experiment: Intrinsic clearance in human liver microsomes measured upto 60 mins by LC-MS/MS analysis; assay type: ADME, Microsome; conditions: read-out: CLH
propertyName: microsomal CLint

- molecularString: "COc1nn(C)cc1C(=O)N[S@@]1(=O)=NC(=O)c2ccc3c(c2)N(C[C@@H]2CCO[C@H]2[C@@H](OC)/C=C/C[C@H](C)C1)C[C@@]1(CCCc2cc(Cl)ccc21)CO3"
  measValue: "< 7.7 µL/min/mg"
- molecularString: "COc1nn(C)cc1C(=O)N[S@@]1(=O)=NC(=O)c2ccc3c(c2)N(C[C@@H]2CCO[C@H]2[C@H](OC)/C(F)=C/C[C@H](C)C1)C[C@@]1(CCCc2cc(Cl)ccc21)CO3"
  measValue: "< 7.7 µL/min/mg"
- molecularString: "C[C@@H]1[C@@H](C)C/C=C/[C@H](OCCN2CCOCC2)[C@@H]2OCC[C@H]2CN2C[C@@]3(CCCc4cc(Cl)ccc43)COc3ccc(cc32)C(=O)NS1(=O)=O"
  measValue: "34 µL/min/mg"
- molecularString: "COC[C@H]1/C(C)=C/C[C@H](C)[C@@H](C)S(=O)(=O)NC(=O)c2ccc3c(c2)N(C[C@@H]2CCO[C@H]21)C[C@@]1(CCCc2cc(Cl)ccc21)CO3"
  measValue: "< 7.7 µL/min/mg"
- molecularString: "CO[C@H]1/C(F)=C/C[C@H](C)[C@@H](C)S(=O)(=O)NC(=O)c2ccc3c(c2)N(C[C@@H]2CCO[C@H]21)C[C@@]1(CCCc2cc(Cl)ccc21)CO3"
  measValue: "22 µL/min/mg"
- molecularString: "CO[C@@H]1/C(F)=C/C[C@H](C)[C@@H](C)S(=O)(=O)NC(=O)c2ccc3c(c2)N(C[C@@H]2CCO[C@H]21)C[C@@]1(CCCc2cc(Cl)ccc21)CO3"
  measValue: "< 7.7 µL/min/mg"

For each of the items listed, what is its microsomal CLint?
1. CO[C@]1(CN2CCN3CCOC[C@@H]3C2)/C(F)=C/C[C@H](C)[C@@H](C)S(=O)(=O)NC(=O)c2ccc3c(c2)N(C[C@@H]2CCO[C@H]21)C[C@@]1(CCCc2cc(Cl)ccc21)CO3
2. CO[C@@]1(CN2CCN3CCCC[C@@H]3C2)/C(F)=C/C[C@H](C)[C@@H](C)S(=O)(=O)NC(=O)c2ccc3c(c2)N(C[C@@H]2CCO[C@H]21)C[C@@]1(CCCc2cc(Cl)ccc21)CO3
3. COc1nn(C)cc1C(=O)N[S@@]1(=O)=NC(=O)c2ccc3c(c2)N(C[C@@H]2CCO[C@H]2[C@](CN2CCN4CCOC[C@@H]4C2)(OC)/C(F)=C/C[C@H](C)C1)C[C@@]1(CCCc2cc(Cl)ccc21)CO3
4. CO[C@@]1(CN2CCN3CCOC[C@@H]3C2)/C(F)=C/C[C@H](C)[C@H](C)S(=O)(=O)NC(=O)c2ccc3c(c2)N(C[C@@H]2CCO[C@H]21)C[C@@]1(CCCc2cc(Cl)ccc21)CO3

11 µL/min/mg
< 7.7 µL/min/mg
< 7.7 µL/min/mg
< 7.7 µL/min/mg

###

Consider the following compounds; for each one, report its microsomal CLint.
test: Intrinsic clearance in human liver microsomes measured upto 60 mins by LC-MS/MS analysis; type: ADME, Microsome; conditions: read-out: CLH

- molecularString: "CO[C@]1(CN2CCN3CCCC[C@@H]3C2)/C=C/C[C@H](C)[C@@H](C)S(=O)(=O)NC(=O)c2ccc3c(c2)N(C[C@@H]2CC[C@H]21)C[C@@]1(CCCc2cc(Cl)ccc21)CO3"
  measValue: "< 7.7 µL/min/mg"
- molecularString: "C[C@@H]1[C@@H](C)C/C=C(\\F)[C@@](O)(CC#N)[C@@H]2OCC[C@H]2CN2C[C@@]3(CCCc4cc(Cl)ccc43)COc3ccc(cc32)C(=O)NS1(=O)=O"
  measValue: "< 7.7 µL/min/mg"
- molecularString: "CO[C@H]1/C=C/C[C@H](C)[C@@H](C)S(=O)(=O)NC(=O)c2ccc3c(c2)N(C[C@@H]2CCO[C@H]21)C[C@@]1(CCCc2cc(Cl)ccc21)CO3"
  measValue: "51 µL/min/mg"
- molecularString: "C[C@@H]1[C@@H](C)C/C=C(\\F)[C@@](O)(CC(=O)N(C)C)[C@@H]2OCC[C@H]2CN2C[C@@]3(CCCc4cc(Cl)ccc43)COc3ccc(cc32)C(=O)NS1(=O)=O"
  measValue: "< 7.7 µL/min/mg"

What value of microsomal CLint has been recorded for this entry: C[C@@H]1[C@@H](C)C/C=C(\F)[C@@](O)(CN2CCN3CCCC[C@@H]3C2)[C@@H]2OCC[C@H]2CN2C[C@@]3(CCCc4cc(Cl)ccc43)COc3ccc(cc32)C(=O)NS1(=O)=O < 7.7 µL/min/mg
